# assay name: yeast display, Sf9 membrane polyspecificity reagent, FACS + sequencing; frameworks hold sequencing errors
measure: polyreactivity (PSR sort gate)

INSERT INTO results (record_sequence, test_result) VALUES
  ('QVQLVESGGGLVQAGGSLRLSCAASGIIFGYYAMGWYRQAPGKEREFVAAINYSGVSTYYADSVKGRFTISRDNAKNTVYLQMNSLKPEDTAVYSCAADFRIVVYGWGGSHMDYWGQGTQVTVSS', 'low polyreactivity'),
  ('QVQLVESGGGLVQAGGSLRLSCAASGRIFPAYVMGWYRQAHGKERELVATIDNGGGTYYADSVKGRFTISRDNAKNTVYLQMNSLKPEDTAVYYCARDRHVRWGLKMDYSGQGTQVTVSS', 'low polyreactivity');

====

# assay name: yeast display, Sf9 membrane polyspecificity reagent, FACS + sequencing; frameworks hold sequencing errors
measure: polyreactivity (PSR sort gate)

INSERT INTO results (record_sequence, test_result) VALUES
  ('QVQLVESGGGLDQAGGSLRLSCAASGGIFSVYAMGWYRQAPGKEREFVAAISKSGGRTYYADSVKGRFTISRDTAKKTVYLQMNCLKQVDTAVYYCNADVYPYYRKPWMDYWGQGSQVTVSS', 'low polyreactivity'),
  ('QVQLVESGGGLVQAGGSLRLSCAASGSIFGYNAMGWYRQAPGKERELDAAISISDGSTYYADSVKGRFTISRDNAKNTVYFQMNSLKPEDTAVYYCAAPRDLSGYGNFGNGPFYYWGQGTQVTVSS', 'low polyreactivity');

====

# assay name: yeast display, Sf9 membrane polyspecificity reagent, FACS + sequencing; frameworks hold sequencing errors
measure: polyreactivity (PSR sort gate)

INSERT INTO assay_data (record_sequence, test_result) VALUES
  ('QVQLVESGGGLVQAGGSLRLICAASGRTLAPNAMGWYRQAPGKERELVATITRGGTTNYADSVKGRFTISRDNAKNTVYLQMNSLKPEDTAVYYCAKAHYLGYYQRYDYWGQGTQVTVSS', 'low polyreactivity'),
  ('QDQLVESGGGLVQAGGSLRLSCAASGSIFEINAMGWYRQSPGKERELVAAITGSGGSTHYADSVKGRFTISRDNAKNTVYLQMNSLKPEDTAVYYCAAVPRYQYGYWGQGTQVTVSS', 'low polyreactivity');

====

# assay name: yeast display, Sf9 membrane polyspecificity reagent, FACS + sequencing; frameworks hold sequencing errors
measure: polyreactivity (PSR sort gate)

INSERT INTO assay_data (record_sequence, test_result) VALUES
  ('QVQLVESGGGLVQAGGSLRLRCAASGSTFNRYAMGWYRQAPWKERELVAAINWRGGRTYYADSVKGRFTISRDNAKNTVYLQMNSLKPEDTAVYYCNADVTSLTRVHGRFIVSDDDYWGQGTQVTVSS', 'low polyreactivity'),
  ('QVQLVESGGGLVQAGGSLRLSCAASGSIFDVYTRGWYRQAPGKQRELVAAINTGGGSTYYADSEKGRFTISRDIAKNTVYLQMNSLKPEDTAVYYCAASVYHYGPLYYWGQVTQVTVSS', 'low polyreactivity'),
  ('QVQLVESGGGIVQAGGSLRLSCAASGRIFVGYAMGWYRQAPGKEREFVAAITFRGGTTYYADSVKGSFTISRDNAKNTVYLQMNSLKPEDTAVYYCAVPHYLYSVEYGYWGQGTQVTVSS', 'low polyreactivity');

====

# assay name: yeast display, Sf9 membrane polyspecificity reagent, FACS + sequencing; frameworks hold sequencing errors
measure: polyreactivity (PSR sort gate)

INSERT INTO assay_data (record_sequence, test_result) VALUES
  ('QVQLVESGGGLVQAGGSLRLSCAASGRIFYFYAIGWYRQAPGKERELVASITSAGSTYYADSVKGRFTISRDNAKNTVYLQMNSLKPADTAVYYCARVRWGSRGGYIAYYGGGYWGQGTQVTVSS', 'high polyreactivity'),
  ('QVQLVESGGGLVQAGGSLRLSCAASGSTFYGYAMGWYRQAPGKERELVAAISWSGASTYYADSVKGRFTISRDNAKNTVYLQMNSLKPDDTAVYYCNKRYRGYFNWPHGYWGQGTQVTVSS', 'high polyreactivity'),
  ('QVQLVESVGGLVQAGGSLRISCAASGRIFSGNAMGWYRQAPGKERELVASISRSGGRTRYADSVKGRFTISRDNAKNTVYLQMNSLKPEDTAVYYFTALSTQSYYFTYAGYDYWGQGTQVTVSS', 'high polyreactivity'),
  ('QVQLVESGGGLVQAGGSLRLSCAASGFTFFLYAMGWYRQAPGKERELVARISSGRDTYYADSVKGRFTISRDNAKKTVYLQMNSLKPEDTAVYYCAVAFWFGYRYYYWGQGTQVTVSS', 'high polyreactivity'),
  ('QVQLVESGGGLVQAGGSLRLSCAASGSIFAPYSMGWYRQAPGKERELVAAITWSGDSTYYADSVKGRFTISRDNAKNTVYLQMNSMKPEDTSVYYCATEEVYGQGNYWGQGTQLTVSS', 'low polyreactivity'),
  ('QDQLVESGGGLVQAGGSLRLSGAASGSTFDRYAMGWYRQAPGKEREFVAAITWGGGSTYYADSVKGRFTISRDNAKNTVYLQMNSLKPEDTAVYYCASRYGATFGYWGQGTQVTVSS', 'low polyreactivity'),
  ('QVQLVESGGGLVQAGGSLRLSCAASGNTFVGNAMGWYRQAPGKERELVAVITWSGGSTYYADSVKGRFTISRDNAKNTVYLQMNSLKPEDTAVYYCAARKFGTSVTHRGYWGQGTQVTVSS', 'low polyreactivity'),
  ('QVQLVESGGGLVQAGGSLRLSCAASGFTSYDNAMGWYRPAPGKERELVAASTWDGGSTYYADSVKGRFTISRDNAKNTVDLQMNSLKPEDTAVYDCAADLADFYPRYNYWGQGTQVTVSS', 'low polyreactivity'),
  ('QVQLVESGVGLVQAGGSLRLSCAASGSIFSPNAMVWSRQAPGKERELVAAITWSGDSTYYADSVKGRFTISRDNAKNTVYLQINSLKREDTEVYYCAADFTYQGSSANDYWGQGSQVTVSS', 'low polyreactivity'),
  ('QVQLVESGGGLVQAGGSLRLSCAASGGIFFINAMGWYRQAPGKERELVAAISISDGSTYYADSVKGRFTISRDNAKNTVYLQMNSLKPEDTAVYYCAAEGFDWDSPEMEYWGQGTQVTVSS', 'low polyreactivity'),
  ('QVQLVESGGGLVQAGGSLRLSCAASGRTFNSYAMGWYRQAPGKEWELVASISSGGSTYYADSVKGRFTLSRDNAKNTDYLQMNSLKPEDTAVYYCAAKSVAYYSYFRRDYWGQGTQVTVSS', 'low polyreactivity'),
  ('QVQLVESGGGLVQAGGSLRLSCAASGSIFYAYYMGWYRQAPGKESELVAAINWSGDSTYYADSVKGRFTISRDNAKNTVYLQMNSLKPEDTAVYYCAAVSGSGDSGEYDYWGQGTQVTVSS', 'low polyreactivity'),
  ('QVQLVESGGGLVQAGGSLRLSCAASGNTFRYYAMGWYRQAPGKERDLVAAISESGGRTYYADSVKGRFTISRDNAKKTVYLQMNSLKPEDTAFYYCAASRWARTWWYGYNYWGQGTQVTVSS', 'high polyreactivity'),
  ('EEELVESGGGLVQAGGSLRLSCAASGSIFQYNAMGWYRQAPGKDRELVAVISWSGDTYYADSVKGRFTISRDNAKNTVYLQMNSLKPEDTAVYYCNAVQYTFTSEYGYWGQGTQVTVSS', 'low polyreactivity'),
  ('QVQLVESAGGLVQAGGSLRLSCAASGRIFRYNAMGWYRPAPGKERELVAAISSIGGRTYYADTVKGRFTISRDNAKNTVYLQMYSLKPEDTAVYSCNARGYLSRSHMHEYDYWGQGTQVTVSS', 'high polyreactivity'),
  ('QLQLQESVGGLVQAGGSLRLSCAAIGNIFPTDRMGWYSQSPGKELEFVATISHGGSTNNADSVKGRFTISRDNGKNTVYLKMNSLKPEVTAVYYCAVWSLGRWRNYYWGQGSQVTVSS', 'low polyreactivity'),
  ('QVKLVESGGGLVQAGGSLRLSCAASGFTFEYYAMGWYRQAPGKERELVAAIRSDSGTNYADSVKGRFTISRDNAKNTVYLQMNSLKPEDTAVYYCAAPTVVLIDYDYWGQGTQVTVSS', 'low polyreactivity'),
  ('QVQLVESGGGLVQAGGSLRLSCAPSGRIFYSNDMGWYRQAPGKERELVAAIRDSAGSTRYADSVKGRFTISRVNAKNTVYLQMNSLKPEDTAVFYGHKDYVSIYFEYLDDYWGQGTQVTVSS', 'low polyreactivity'),
  ('QVQLVESGGGLVQAGGSLRLSCAASGIIFRPYAMGWYRQAPGKERELVAAISRGGRTKYADSVKGRFTISRDNAKNTVYLQMNSLKPEDTAVYYCAAQFRFTRLVGVAAEYDYGGQGTQVTVSS', 'low polyreactivity'),
  ('QVQLVESGGGLVQAGGTLRLSCDASGFIFPGYAKGWSRNATGKQREFVAAISRSGGSTYYADSVKGRFTISRDNAKNTVYLQMNSLKPEDTAVYYCATRARGYTGYDYWGQGTQVTVSS', 'high polyreactivity'),
  ('QVQLVESGGGLVQAGGSLRLSCAASGRIFGYYAMGWYRQAPGKESELVATINSVGSTNYADSVKGRFTISRDNAKNTVYLQMNSLKPEDTAVYYCATDSAYTFFTYRLWRHGYWGQGTQVTVSS', 'low polyreactivity');
